assay: MTT cytotoxicity assay, HEK293-T; conditions: human, HEK293-T cells
So I've got a bunch of molecules here, and I need their viability at 25 µM values.
Numbers only here, please. The scale is %.

Task: Tell me viability at 25 µM reported for CC1=[N+]([O-])C(c2ccccc2)Nc2c(Br)cc(I)cc21 (stereo not drawn)
Result: 42

Task: Tell me viability at 25 µM reported for CC1=[N+]([O-])C(c2ccc(F)cc2)Nc2c(I)cc(Br)cc21 (stereo not drawn)
Result: 33.9

Task: Tell me viability at 25 µM reported for CC1=[N+]([O-])C(c2ccccc2)Nc2c(I)cc(Br)cc21 (stereo not drawn)
Result: 29.8

Task: Tell me viability at 25 µM reported for CC1=[N+]([O-])C(c2ccccc2)Nc2ccc(Br)cc21 (stereo not drawn)
Result: 55.1

Task: Tell me viability at 25 µM reported for CC1=[N+]([O-])C(c2ccccc2)Nc2ccc(I)cc21 (stereo not drawn)
Result: 31.9

Task: Tell me viability at 25 µM reported for CC1=[N+]([O-])C(c2ccc(Cl)cc2)Nc2c(Br)cc(I)cc21 (stereo not drawn)
Result: 44.2

* * *

assay: MTT cytotoxicity assay, HEK293-T; conditions: human, HEK293-T cells
Classification scheme (viability at 25 µM): low group = under 30%, middle group = from 30% up to 40%, high group = 40% and over

Task: Which category fits this record: COc1ccc(C2Nc3c(Br)cc(I)cc3C(C)=[N+]2[O-])cc1 (stereo not drawn) [Compound 3p]
Result: high group

Task: Which category fits this record: CC1=[N+]([O-])C(c2ccc(Cl)cc2)Nc2c(I)cc(Br)cc21 (stereo not drawn) [Compound 3k]
Result: middle group

Task: Which category fits this record: CC1=[N+]([O-])C(c2ccc(F)cc2)Nc2ccc(I)cc21 (stereo not drawn) [Compound 3f]
Result: middle group

Task: Which category fits this record: CC1=[N+]([O-])C(c2ccc(F)cc2)Nc2ccc(Br)cc21 (stereo not drawn) [Compound 3b]
Result: middle group

Task: Which category fits this record: COc1ccc(C2Nc3c(I)cc(Br)cc3C(C)=[N+]2[O-])cc1 (stereo not drawn) [Compound 3l]
Result: low group

Task: Which category fits this record: CC1=[N+]([O-])C(c2ccc(Cl)cc2)Nc2ccc(Br)cc21 (stereo not drawn) [Compound 3c]
Result: middle group

* * *

So I've got a bunch of molecules here, and I need their Cell viability percentage, A549 values.
test system: lung cancer (A549) cell line; experiment: MTT cytotoxicity assay, A549; settings: Conc. 1 (µM per method); Table S3

Task: Tell me Cell viability percentage, A549 reported for CC1=[N+]([O-])C(c2ccc(F)cc2)Nc2c(I)cc(Br)cc21 (centres unmarked)
Result: 79,064%

Task: Tell me Cell viability percentage, A549 reported for CC1=[N+]([O-])C(c2ccc(Cl)cc2)Nc2ccc(I)cc21 (racemic)
Result: 72,7416%

Task: Tell me Cell viability percentage, A549 reported for CC1=[N+]([O-])C(c2ccccc2)Nc2ccc(I)cc21 (centres unmarked)
Result: 74,9578%

Task: Tell me Cell viability percentage, A549 reported for CC1=[N+]([O-])C(c2ccc(F)cc2)Nc2c(Br)cc(I)cc21 (centres unmarked)
Result: 79,9753%

Task: Tell me Cell viability percentage, A549 reported for CC1=[N+]([O-])C(c2ccccc2)Nc2c(Br)cc(I)cc21 (centres unmarked)
Result: 78,1978%
